Origin of measurements: ChEMBL document CHEMBL4513216

- TEST PROTOCOL: Toxicity liver stage against HepG2, at 10uM
- Format: cell-based
- Parameters: test concentration 10 uM, cell line HepG2-A16-CD81EGFP
- ASSAY SETUP: human, HepG2-A16-CD81EGFP cells; read-out: INHIBITION
MEASURED QUANTITY: cytotoxicity at 10 µM (%)
Hi! Could you send only the number? It should be in %, unit omitted.

# input compound: CS(=O)(=O)c1ccc(CC(=O)N2CCN3CCNC(=O)C3C2)cc1 (stereo not drawn) ; wanted: its cytotoxicity at 10 µM
-3.34

Can you share its cytotoxicity at 10 µM? I mean this compound: CC(C)(C)N1CC(C(=O)N2CCN(CCn3cccc3)CC2)CC1=O (stereo not drawn)
18.7

# input compound: O=C(NCc1cccc(F)c1)NCC(O)c1cccc(F)c1 (stereo not drawn) ; wanted: its cytotoxicity at 10 µM
-7.58

Dear colleague, I am looking for the recorded cytotoxicity at 10 µM of the following compound: Cc1cccc(Nc2cc(C)nc(C3CCN(C(C)C)C3)n2)n1 (stereo not drawn)
9.93

Look up cytotoxicity at 10 µM for this compound: O=C1CO[C@H]2CN(S(=O)(=O)c3ccccc3)C[C@H]2N1CC1CCCCC1
3.36

Value lookup for cytotoxicity at 10 µM; key = Cc1nc(C)n(C2CCCN(C(=O)c3c(C)nn4cccnc34)C2)n1 (stereo not drawn)
-29.2

Endpoint output: cytotoxicity at 10 µM of CC1c2cc(F)ccc2CCN1C(=O)c1[nH]c(=O)[nH]c(=O)c1N (stereo not drawn) . Value?
7.78

Given the compound CC(=O)N1CCC(c2nnc3ccc(C(=O)NC(C)C)cn23)C1 (stereo not drawn) , what is its reported cytotoxicity at 10 µM?
6.37

I am curious: what cytotoxicity at 10 µM value has been reported for Cc1cc(C)c2cc(CNCc3cccnc3)c3nn(C)c(=O)n3c2c1 ?
-6.11

Item CN(C)C(=O)c1coc(COc2ccccc2)n1 has what recorded cytotoxicity at 10 µM?
-7.3

Using the record for CCc1nc(CN2CCCN(c3nccs3)CC2)no1 , report its cytotoxicity at 10 µM.
-6.44

Entry CN1CCN(C(=O)c2csnn2)c2ccccc21 has what cytotoxicity at 10 µM?
-1.15

Sample CCCN(Cc1nc(-c2ccoc2)oc1C)CC1CCCO1 (stereo not drawn) — what was its cytotoxicity at 10 µM?
2.4

Query (compound): COCC(=O)Nc1cc(S(=O)(=O)C(F)(F)F)ccc1OC ; field requested: cytotoxicity at 10 µM
17.3

Could you tell me which cytotoxicity at 10 µM is on file for Cn1c(CC2CCS(=O)(=O)C2)nnc1SCCOc1cccc(Cl)c1 (stereo not drawn) ?
14.4

Which cytotoxicity at 10 µM is reported for this compound? O=C1CC(N(C(=O)c2csc(-c3ccccc3)n2)C2CC2)C(=O)N1 (stereo not drawn)
15.2

Reported cytotoxicity at 10 µM for CCNC(=O)c1cn(C(C)(C)C)c2ncccc12 : what is it?
-1.28

cytotoxicity at 10 µM for CC(C)(C)n1cc(CNc2ccc(CNS(C)(=O)=O)cc2)cn1 ?
16.1

Please give the measured cytotoxicity at 10 µM for this compound: CS(=O)(=O)N1CCc2ccc(=O)n(CC3CC3)c2CC1
7.25

What measured cytotoxicity at 10 µM goes with CSCCNC(=O)c1cc(Br)cn1C(C)C ?
-1.16

May I ask what cytotoxicity at 10 µM has been recorded for CCN(Cc1cnn(C)c1)S(=O)(=O)c1ccc(NC(=O)C(C)(C)C)cc1 ?
0.165

For the compound shown here, COc1cc(CNC(c2ccccc2)c2nccn2C)cc(OC)c1 (stereo not drawn) , give the reported cytotoxicity at 10 µM.
-6.69

Param item = COC(C)(C)CNC(=O)N1CCC(n2ccc(C(F)(F)F)n2)CC1 ; retrieve measured cytotoxicity at 10 µM.
-2.41

Dear colleague, I am looking for the recorded cytotoxicity at 10 µM of the following compound: Cc1csc(CCNC(=O)c2ccc(N(C)C)c(F)c2)n1
7.15

Param item = Clc1ccc(N2CCC(OCC3CCCCO3)CC2)nc1 (stereo not drawn) ; retrieve measured cytotoxicity at 10 µM.
-1.8

Look at this compound and give its reported cytotoxicity at 10 µM. CCCn1nnnc1CN(C)C(C)c1ccc(C)cc1 (stereo not drawn)
-3.21

What value of cytotoxicity at 10 µM has been recorded for this entry: CC(C)Oc1ccc(C(=O)NCc2ccnc(N3CCCC3)c2)cn1
47.3

Item COc1ccc(Cl)cc1C(=O)N1CCCC(c2cc(C)[nH]n2)C1 (stereo not drawn) has what recorded cytotoxicity at 10 µM?
-10.1

Looking for the measured cytotoxicity at 10 µM of COc1cc(F)ccc1-c1ncccc1NC(=O)C(C)C , can you help?
1.23

Please report the recorded cytotoxicity at 10 µM for COc1ccc(-c2nccn2CCN2CCCCC2)c(OC)c1OC .
4.74

Consider the compound O=C(CC(F)(F)F)N1C[C@@H]2CC[C@H]1CN(Cc1ccccc1)C2 and give its measured cytotoxicity at 10 µM.
-3.63

Returns the measured cytotoxicity at 10 µM for the input compound. Input: COc1cccc(NC(=O)C(C)Cn2cc(Cl)cn2)c1 (stereo not drawn)
-1.47

Give the measured cytotoxicity at 10 µM of COCC1CC2(CCN(C(=O)c3ccc(C)nc3)CC2)CO1 (stereo not drawn) .
-127

Query (compound): CCS(=O)(=O)N1CCC2(CCCC(=O)N2C)CC1 ; field requested: cytotoxicity at 10 µM
0.817

Record request: cytotoxicity at 10 µM value, item CC(C)(O)CN1CCN(C(=O)c2cccc(CC#N)c2)CC1
-13.4

May I ask what cytotoxicity at 10 µM has been recorded for COCC(=O)N1CCn2c(COc3cccnc3)cnc2C1C (stereo not drawn) ?
2.14

May I ask what cytotoxicity at 10 µM has been recorded for O=C(c1c2c(N3CCOCC3)ncnc2n2ccccc12)N1CCCC1 ?
-1.52

Which cytotoxicity at 10 µM is listed for CC[C@@]1(O)CCN(CCCOc2ccc(C(N)=O)cc2)C[C@H]1O ?
-5.03

---

- TEST PROTOCOL: Toxicity liver stage against HepG2, at 10uM
- Type: cell-based
- Set-up: test concentration 10 uM, cell line HepG2-A16-CD81EGFP
- ASSAY SETUP: human, HepG2-A16-CD81EGFP cells; read-out: INHIBITION
For each of the compounds below, state its cytotoxicity at 10 µM.
The reply should contain only the number, in %.

// lookup cytotoxicity at 10 µM for CN(CCN1CCOCC1)C(=O)CCCc1ccccc1
-8.28

Would you kindly share the measured cytotoxicity at 10 µM for CCN(CC)c1nc(Nc2cccc(C(C)O)c2)nc2ccccc12 (centres undefined) ?
37.6

Suppose we examine the compound CCc1nnc2n1CCN(Cc1cc(Cl)c3c(c1)OCCO3)C2 ; what cytotoxicity at 10 µM value has been reported?
-8.95

Consider the compound CCOc1ccc(Cl)c(C(=O)N2CCCN(CC(N)=O)CC2)n1 and give its measured cytotoxicity at 10 µM.
-1.26

Requested field: cytotoxicity at 10 µM. Item: Cc1nc(C)n(C2CCCN(C(=O)CCn3cncn3)C2)n1 (centres undefined)
-4.24

State the recorded cytotoxicity at 10 µM for this entry: O=C(CNc1ccc(F)cc1OCC(F)(F)F)NCc1ccco1
7.35

Which value of cytotoxicity at 10 µM has been reported for CCN1CCc2[nH]cnc2C12CCN(C(=O)CCc1cccs1)CC2 in the records?
0.688

Dear colleague, I am looking for the recorded cytotoxicity at 10 µM of the following compound: CS(=O)(=O)N[C@@H]1CN(C(=O)c2ccccn2)[C@@H]2CCCO[C@@H]21
4.3

# cytotoxicity at 10 µM lookup, item Cc1n[nH]cc1CNCC1(c2cccc(F)c2)CCOCC1
6.48

For O=C(CCOc1cccc(F)c1)N1CCCC(n2cccn2)C1 (centres undefined) , what is its reported cytotoxicity at 10 µM?
-14.7

Using the record for C[C@@H]1CN(C(=O)c2cnc(C3CC3)nc2)CC[C@@]1(O)C1CCOCC1 , report its cytotoxicity at 10 µM.
-13.9

What cytotoxicity at 10 µM value was documented for this compound, CCc1cnc(C)nc1NCCN1CCCC(C(N)=O)C1 (centres undefined) ?
-2.54

I am curious: what cytotoxicity at 10 µM value has been reported for CCC(CC)(CCCNC(=O)c1c(C)noc1C)C1OCCO1 ?
1.98

What value of cytotoxicity at 10 µM has been recorded for this entry: CC(=O)N1CCN(CCNS(=O)(=O)c2cccc(F)c2)CC1
6.99

Consider the compound shown here: CN(Cc1csc(-c2cccs2)n1)C(=O)CN1CCOC1=O What is its recorded cytotoxicity at 10 µM?
-0.811

Would you kindly share the measured cytotoxicity at 10 µM for Cc1cc(CNc2nccc(N)n2)c2[nH]c(C)c(C)c2c1 ?
-1.86

What value of cytotoxicity at 10 µM has been reported for the following compound? CC1COCCN1Cc1nc(-c2ccc(Br)s2)no1 (centres undefined)
-2.45

Given the entry CC(C)(C)C(=O)NCC(=O)NCCc1nc(C(F)(F)F)cs1 , report its measured cytotoxicity at 10 µM.
6.16

Item CN(C)CCNc1cc(-c2ncccn2)c2cc[nH]c2n1 has what recorded cytotoxicity at 10 µM?
6.39
